These data points were gathered from patent US20230250182A1.

- RUN_DESCRIPTION: FIH Phase 1 study of tolerability, safety, PK and PD of MK-6482 in participants with advanced solid tumors
- Type: in vivo, human
- ASSAY_CONDITIONS: 120 mg QD expansion cohort (Part 1B), Day 15; read-out: mean steady state Cmax
ENDPOINT: Cmax (µM)
Response body: numeric value in µM, unit text excluded.

### Prompt So what does the record say about Cmax for `CS(=O)(=O)c1ccc(Oc2cc(F)cc(C#N)c2)c2c1[C@H](O)[C@H](F)[C@@H]2F` ?
### Response 4.67

###

- RUN_DESCRIPTION: FIH Phase 1 study of tolerability, safety, PK and PD of MK-6482 in participants with advanced solid tumors
- Format: in vivo, human
- ASSAY_CONDITIONS: human, in vivo; participants with advanced solid tumors, oral; read-out: median tmax
ENDPOINT: Tmax

### Prompt Could you tell me which Tmax is on file for `CS(=O)(=O)c1ccc(Oc2cc(F)cc(C#N)c2)c2c1[C@H](O)[C@H](F)[C@@H]2F` ?
### Response 1 to 2.8 h
